Values compiled from PubChem BioAssay AID1159580.

- EXPERIMENTAL_DETAILS: chemical genetic growth profiling, strain panel (AID 1159580);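 note: tested at 20 µM; growth read once vehicle control cultures reached saturation at 30 °C; 1 = growth at the plate median or of vehicle wells; lower values mean less growth of the strain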
- CONDITION_DETAILS: S. cerevisiae deletion strains, growth OD, locus YHR079C, strain IRE1 (second series), hits give low values
Screen size: about 5,500 compounds; about 2,000 (36%) were called active. Roughly 18% stayed inconclusive and do not appear here. The list shows a part of the results.
Each entry below carries its recorded normalized growth.

Reference set (5 entries):
COMPOUND: COC(=O)C[C@H]1C(C)(C)C(=O)[C@@H]2CC3=C(CC[C@]4(C)C3=CC(=O)O[C@H]4c3ccoc3)[C@@]1(C)C2=O
normalized growth: 1.02 (inactive)
--
COMPOUND: NC(CO)C(=O)NNCc1ccc(O)c(O)c1O (stereo not given)
normalized growth: 1 (inactive)
--
COMPOUND: CCC(C)(C)C(=O)O[C@H]1C[C@@H](C)C=C2C=C[C@H](C)[C@H](CC[C@@H]3C[C@@H](O)CC(=O)O3)[C@H]21
normalized growth: 1.03 (inactive)
--
COMPOUND: CCCNC1CCc2nc(N)sc2C1 (stereo not given)
normalized growth: 0.995 (inactive)
--
COMPOUND: CN1C(C(=O)Nc2ccccn2)=C(O)c2ccccc2S1(=O)=O
normalized growth: 0.96 (inactive)

Memo: C[N+]1(C)C2CC(OC(=O)[C@@H](CO)c3ccccc3)CC1C1OC12 (stereo not given in full) , reported normalized growth: 1.02 (inactive)

Memo: C=C1C(=O)O[C@@H]2C3O[C@]3(C)CC/C=C(\C)CC[C@@H]12 (stereo not given in full) , reported normalized growth: 0.861 (active)

Memo: Cc1cc(-c2ccccc2)nnc1NCCN1CCOCC1 , reported normalized growth: 0.972 (inactive)

Memo: Nc1ccn(C2O[C@H](CO)[C@@H](O)[C@@H]2O)c(=O)n1 (stereo not given in full) , reported normalized growth: 0.996 (inactive)

Memo: Cc1ccc(C)c(OCCCC(C)(C)C(=O)O)c1 , reported normalized growth: 0.869 (active)

###

- EXPERIMENTAL_DETAILS: chemical genetic growth profiling, strain panel (AID 1159580)
- CONDITION_DETAILS: S. cerevisiae deletion strains, growth OD, locus YPL078C, strain atp4, hits give low values
Hit rate of the full screen: of about 5,500 compounds, about 2,000 (36%) were called active. Inconclusive results (about 18%) are left out. The list shows a part of the results.
PROPERTY_LABEL: normalized growth
# respond with the number and nothing more

Reference set (5 entries):
MOLECULE: C=CCSCC1Nc2cc(Cl)c(S(N)(=O)=O)cc2S(=O)(=O)N1 (stereo unspecified)
VALUE_MEASURED: 0.989
--
MOLECULE: C#CCCCCCCCCCCCC(=O)CC(O)COC(C)=O (stereo unspecified)
VALUE_MEASURED: 0.976
--
MOLECULE: CC(=O)OCC(OC(C)=O)C(OC(C)=O)C(OC(C)=O)C(OC(C)=O)C(COC(C)=O)OC(C)=O (stereo unspecified)
VALUE_MEASURED: 0.993
--
MOLECULE: Cc1cc(NC(=O)C2=C(O)c3ccccc3S(=O)(=O)N2C)no1
VALUE_MEASURED: 0.981
--
MOLECULE: CC1(C)O[C@H]2[C@H](O)C[C@](O)(C(N)=O)C[C@H]2O1
VALUE_MEASURED: 1.01

Moving on to the next molecule.
Memo: COc1cc([C@@H]2c3cc4c(c(O)c3C[C@H]3COC(=O)[C@@H]32)OCO4)cc(OC)c1OC , reported normalized growth: 1.01

###

- EXPERIMENTAL_DETAILS: chemical genetic growth profiling, strain panel (AID 1159580)
- CONDITION_DETAILS: S. cerevisiae deletion strains, growth OD, locus YJR075W, strain HOC1
Among all 5,500 compounds or so, about 2,000 (36%) were called active. Roughly 18% stayed inconclusive and do not appear here. No stated cut-off is given here; in the data, active means normalized growth mostly below about 0.91 (no sharp cut-off); inconclusive means no clear call, values can overlap the other calls; inactive means mostly above about 0.92. The list shows a part of the results.
Please answer using one outcome listed in True = active, False = inactive

Sample answers from the record:
COMPOUND: Cc1cccc2c1N(C(=S)Nc1ccccc1Cl)CCC2
QUALITATIVE_LABEL: True
//
COMPOUND: N#CC(C#N)=Cc1ccc(-c2cc(C(F)(F)F)ccc2Cl)o1
QUALITATIVE_LABEL: False

Query: Hey, what did the test say about COc1ccc2c(c1O)OCC1c3cc4c(cc3OC21)OCO4 (stereo not drawn) ?
Response: False

###

- EXPERIMENTAL_DETAILS: chemical genetic growth profiling, strain panel (AID 1159580);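 note: tested at 20 µM; growth read once vehicle control cultures reached saturation at 30 °C; 1 = growth at the plate median or of vehicle wells; lower values mean less growth of the strain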
- CONDITION_DETAILS: S. cerevisiae deletion strains, growth OD, locus YPR135W, strain CTF4
In all, about 5,500 compounds went through this assay and about 2,000 (36%) were called active. About 18% were inconclusive and are not listed. No stated cut-off is given here; in the data, active means normalized growth mostly below about 0.91 (no sharp cut-off); inconclusive means no clear call, values can overlap the other calls; inactive means mostly above about 0.92. This is one part of the list.
Please answer using one outcome listed in T for active, F for inactive

Sample answers from the record:
MOL_SMILES: Cc1onc(-c2c(Cl)cccc2Cl)c1C(=O)OCC(F)(F)F
QUALITATIVE_LABEL: F
//
MOL_SMILES: Cc1cccc2c1N(C(=S)Nc1ccccc1Cl)CCC2
QUALITATIVE_LABEL: T

Continue with the compound presented below.
Query: Hey, what did the test say about COC(=O)c1c(-c2c(Cl)cccc2Cl)noc1NC(=O)NN1CCCCC1 ?
Response: F

###

- EXPERIMENTAL_DETAILS: chemical genetic growth profiling, strain panel (AID 1159580);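 note: tested at 20 µM; growth read once vehicle control cultures reached saturation at 30 °C; 1 = growth at the plate median or of vehicle wells; lower values mean less growth of the strain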
- CONDITION_DETAILS: S. cerevisiae deletion strains, growth OD, locus YPL051W, strain arl3, hits give low values
Among all 5,500 compounds or so, about 2,000 (36%) were called active. Not shown: some 18% with an inconclusive outcome. The list shows a part of the results.
Each entry below carries its recorded normalized growth.
# respond with the number and nothing more

Reference set (3 entries):
MOLECULE: Clc1cccc(Cl)c1NC1=NCCN1
normalized growth: 0.991

MOLECULE: Cc1cccc(C)c1NC1=NCCCS1
normalized growth: 0.999

MOLECULE: CC(=O)OC1CCC2(C)C(=CC=C3C2CCC2(C)C3CCC2C(C)/C=C/C(C)C(C)C)C1(C)C (stereo not drawn)
normalized growth: 1.02

Memo: CC(C)C(=O)Nc1ccc([N+](=O)[O-])c(C(F)(F)F)c1 , reported normalized growth: 1

Memo: CCOC(=O)c1ccc(O)cc1 , reported normalized growth: 0.998

Memo: CCNC(=O)CC[C@H](N)C(=O)O , reported normalized growth: 0.996

Memo: NS(=O)(=O)c1cc2c(cc1Cl)NC(C(Cl)Cl)NS2(=O)=O (stereo not drawn) , reported normalized growth: 0.991

Memo: CC(C)NNC(=O)c1ccncc1 , reported normalized growth: 1.01

Memo: O=c1cc(-c2ccccc2O)oc2cc(O)ccc12 , reported normalized growth: 0.975

Memo: CC(C(=O)O)c1ccc(C(=O)c2cccs2)cc1 (stereo not drawn) , reported normalized growth: 0.989

Memo: NC(N)=NS(=O)(=O)c1ccc(N)cc1 , reported normalized growth: 0.997

Memo: COC(=O)[C@@H]1OC(=O)[C@H]2O[C@@]23[C@@]1(C)CCC1[C@@]2(C)CCC(=O)C(C)(C)C2C[C@@H](OC(C)=O)[C@]13C (stereo partly drawn) , reported normalized growth: 1.02

Memo: COc1ccc2c(c1OC)C(=O)OC2[C@H]1c2c(cc3c(c2OC)OCO3)CCN1C (stereo partly drawn) , reported normalized growth: 1.02

Memo: CC(C)C(C)/C=C/C(C)C1CCC2C3=CC=C4CC(O)CCC4(C)C3CCC21C (stereo not drawn) , reported normalized growth: 0.995

Memo: CC(C)(Oc1ccc(C2CC2(Cl)Cl)cc1)C(=O)O (stereo not drawn) , reported normalized growth: 0.994

Memo: O=C1[C@H](CCC(O)c2ccc(F)cc2)[C@@H](c2ccc(O)cc2)N1c1ccc(F)cc1 (stereo partly drawn) , reported normalized growth: 0.991

Memo: C=C1C(=O)OC2CC1C(OC(C)=O)C/C(C)=C/CC/C(C)=C/CC[C@]2(C)O (stereo partly drawn) , reported normalized growth: 1.01

Memo: CC1(C)NC(=O)N(c2ccc([N+](=O)[O-])c(C(F)(F)F)c2)C1=O , reported normalized growth: 0.985

###

- EXPERIMENTAL_DETAILS: chemical genetic growth profiling, strain panel (AID 1159580);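 note: tested at 20 µM; growth read once vehicle control cultures reached saturation at 30 °C; 1 = growth at the plate median or of vehicle wells; lower values mean less growth of the strain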
- CONDITION_DETAILS: S. cerevisiae deletion strains, growth OD, locus YHR200W, strain rpn10
Screen size: about 5,500 compounds; about 2,000 (36%) were called active. Inconclusive results (about 18%) are left out. No stated cut-off is given here; in the data, active means normalized growth mostly below about 0.91 (no sharp cut-off); inconclusive means no clear call, values can overlap the other calls; inactive means mostly above about 0.92. The list shows a part of the results.
Please answer using one outcome listed in true (1) = active, false (0) = inactive

Sample answers from the record:
COMPOUND: COc1cc2occ(-c3ccccc3)c(=O)c2c(OC)c1C
QUALITATIVE_LABEL: true (1)
--
COMPOUND: Cc1cc(-c2ccccc2)nnc1NCCN1CCOCC1
QUALITATIVE_LABEL: false (0)
--
COMPOUND: CCCNC1CCc2nc(N)sc2C1 (configuration not stated)
QUALITATIVE_LABEL: false (0)
--
COMPOUND: COc1cc(-c2coc3cc(OCc4ccccc4)c(OC)c(O)c3c2=O)cc(OCc2ccccc2)c1OC
QUALITATIVE_LABEL: false (0)
--
COMPOUND: Cn1c(=O)c2[nH]cnc2n(C)c1=O
QUALITATIVE_LABEL: false (0)

Query: Hey, what did the test say about COc1cc(-c2coc3cc(OCc4ccccc4)c(OC)c(O)c3c2=O)cc(O)c1OC ?
Response: true (1)

Query: Hey, what did the test say about C=C1CCC(OC(C)=O)/C(C)=C/C[C@@H]2[C@@H]1CC2(C)C (some centres not stated) ?
Response: false (0)
